targetEntity: Recombinant Human (rh) DPP1 (Homo sapiens)
Sequence (P53634 25-463): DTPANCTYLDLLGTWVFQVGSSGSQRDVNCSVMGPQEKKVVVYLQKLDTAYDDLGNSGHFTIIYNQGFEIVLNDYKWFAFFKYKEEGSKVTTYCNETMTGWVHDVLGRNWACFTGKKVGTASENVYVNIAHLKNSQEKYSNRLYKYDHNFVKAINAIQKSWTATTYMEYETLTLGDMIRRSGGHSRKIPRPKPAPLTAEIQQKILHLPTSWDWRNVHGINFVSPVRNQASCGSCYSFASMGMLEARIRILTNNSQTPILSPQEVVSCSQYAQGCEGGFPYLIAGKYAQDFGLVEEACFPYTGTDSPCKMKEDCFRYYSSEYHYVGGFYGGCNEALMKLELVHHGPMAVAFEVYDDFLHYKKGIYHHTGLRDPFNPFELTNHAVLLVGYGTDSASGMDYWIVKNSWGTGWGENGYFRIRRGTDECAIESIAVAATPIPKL
method: Fluorescence Assay for Recombinant Human (rh) DPP1
Format: biochemical
runConditions: rhDPP1; substrate H-Gly-Arg-AMC; pH5.0; 30 min pre-incubation, 60 min reaction at 22° C.; highest concentration 10 μM; read-out: DPP1 activity, pIC50 (converted)
Counter-ions that a name gives are not always drawn.
recordedMetric: IC50

{"columns": ["compound", "targetEntity", "recordedMetric", "value"],
 "data": [
  ["COc1ccc(-c2ccc(C[C@@H](C#N)NC(=O)[C@@H]3CCCCN3)cc2)c(OC)c1 [Example 33, trifluoroacetate]", "Recombinant Human (rh) DPP1 (Homo sapiens)", "IC50", "200 nM"],
  ["Cc1ncccc1-c1ccc(C[C@@H](C#N)NC(=O)[C@@H]2CCCCN2)cc1 [Example 52, trifluoroacetate]", "Recombinant Human (rh) DPP1 (Homo sapiens)", "IC50", "3160 nM"],
  ["CN(C)C(=O)c1cccc(-c2ccc(C[C@@H](C#N)NC(=O)[C@@H]3CCCCN3)cc2)c1 [Example 42]", "Recombinant Human (rh) DPP1 (Homo sapiens)", "IC50", "501 nM"],
  ["N#C[C@H](Cc1ccc(-c2ccccc2O[C@@H]2CCNC2)cc1)NC(=O)[C@@H]1CCCCN1 [Example 13, Ditrifluoroacetate]", "Recombinant Human (rh) DPP1 (Homo sapiens)", "IC50", "794 nM"]
]}

---

targetEntity: Recombinant Human (rh) DPP1 (Homo sapiens)
method: Fluorescence Assay for Recombinant Human (rh) DPP1
Type: biochemical
runConditions: rhDPP1; substrate H-Gly-Arg-AMC; pH5.0; 30 min pre-incubation, 60 min reaction at 22° C.; highest concentration 10 μM; read-out: DPP1 activity, pIC50 (converted)
Counter-ions that a name gives are not always drawn.
# IC50 per entry

{"columns": ["molecule", "IC50 [µM]"],
 "data": [
  ["COc1cccc(-c2ccc(C[C@@H](C#N)NC(=O)[C@@H]3CCCCN3)cc2)c1 [Example 15, Trifluoroacetate]", 0.1],
  ["N#C[C@H](Cc1ccc(-c2ccc(CN)cc2)cc1)NC(=O)[C@@H]1CCCCN1 [Example 36, trifluoroacetate]", 0.251],
  ["CCN1CCN(S(=O)(=O)c2ccc(-c3ccc(CC(C#N)NC(=O)[C@@H]4CCCCN4)cc3)cc2)CC1 (stereo partly drawn)", 0.00501],
  ["N#C[C@H](Cc1ccc(-c2cnoc2)cc1)NC(=O)[C@@H]1CCCCN1 [Example 21, trifluoroacetate]", 0.0501],
  ["N#C[C@H](Cc1ccc(-c2ccc3c(c2)CCNC3)cc1)NC(=O)[C@@H]1CCCCN1 [Example 110, Ditrifluoroacetate]", 0.158],
  ["CS(=O)(=O)c1cc(-c2ccc(C[C@@H](C#N)NC(=O)[C@@H]3CCCCN3)cc2)ccc1CC#N [Example 101, Trifluoroacetate]", 0.0398],
  ["N#Cc1ccc(-c2ccc(C[C@@H](C#N)NC(=O)[C@@H]3CCCCN3)cc2)cc1F", 0.01],
  ["N#C[C@H](Cc1ccc(S(=O)(=O)c2ccccc2)cc1)NC(=O)[C@@H]1CCCCN1", 3.16],
  ["N#C[C@H](Cc1ccc(-c2cccc(C(=O)O)c2)cc1)NC(=O)[C@@H]1CCCCN1 [Example 12, Trifluoroacetate]", 0.398],
  ["C[S+]([O-])c1cc(-c2ccc(C[C@@H](C#N)NC(=O)[C@@H]3CCCCN3)cc2)ccc1C(N)=O (stereo partly drawn)", 0.0398],
  ["CCc1ccc(-c2ccc(C[C@@H](C#N)NC(=O)[C@@H]3CCCCN3)cc2)cc1 [Example 70, Trifluoroacetate]", 0.02],
  ["CN(C)S(=O)(=O)c1cccc(-c2ccc(C[C@@H](C#N)NC(=O)[C@@H]3CCCCN3)cc2)c1 [Example 87, Trifluoroacetate]", 0.0501],
  ["N#C[C@H](Cc1ccc(-c2ccccc2)cc1)NC(=O)[C@@H]1C[C@@H](O)CN1", 0.2],
  ["CS(=O)(=O)c1ccc(-c2ccc(C[C@@H](C#N)NC(=O)[C@@H]3CCCCN3)cc2)cc1", 0.0126],
  ["Cn1cc(-c2ccc(C[C@@H](C#N)NC(=O)[C@@H]3CCCCN3)cc2)cn1 [Example 26, trifluoroacetate]", 0.0631],
  ["N#C[C@H](Cc1ccc(-c2cnn(Cc3ccccc3)c2)cc1)NC(=O)[C@@H]1CCCCN1 [Example 4, Trifluoroacetate]", 0.0316],
  ["N#C[C@H](Cc1ccc(-c2ccc(F)c(F)c2)cc1)NC(=O)[C@@H]1CCCCN1 [Example 29, trifluoroacetate]", 0.1],
  ["N#C[C@H](Cc1ccc(-c2cccc(CN3CCCCC3)c2)cc1)NC(=O)[C@@H]1CCCCN1 [Example 2, di-trifluoroacetate]", 0.0794]
]}
